# SYSTEM: T1, monovalent hVISTA-ECD (human VISTA extracellular domain with His tail) (human, UniProt Q9H7M9 33-193)
# T1 construct: analyte flowed over captured antibody; also called huVISTA-His
# T1 sequence (Q9H7M9 other isoform, or with tags, fused parts or gaps limits assumed): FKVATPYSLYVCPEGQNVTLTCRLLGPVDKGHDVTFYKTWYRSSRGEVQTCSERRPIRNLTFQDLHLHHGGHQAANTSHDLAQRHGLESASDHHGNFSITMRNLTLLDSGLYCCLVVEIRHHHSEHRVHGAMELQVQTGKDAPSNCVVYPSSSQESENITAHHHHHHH
# METHOD_NOTES: SPR, pH 6.0
EXPERIMENTAL_ENDPOINT: pKd
Notebook: values listed as pKd are -log10 of the concentration (mol/L).

P1-064516 (41F11_Vk_V29D/A64G/R91T/R96Y) (antibody, V domains shown, also called P1-064516-1) VH: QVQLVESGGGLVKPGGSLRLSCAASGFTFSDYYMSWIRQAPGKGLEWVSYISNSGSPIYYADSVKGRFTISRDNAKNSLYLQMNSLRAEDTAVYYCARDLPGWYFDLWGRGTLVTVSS VL: EIVLTQSPATLSLSPGERATLSCRASQSDSSYLAWYQQKPGQAPRLLIYDASNRATGIPARFSGSGSGTDFTLTISSLEPEDFAVYYCQQTNNWPYTFGQGTKVEIK ... 8.11

Which pKd reading was recorded for the binder P1-065332 (41F11_VH_T28P/Y50W/S55E/A60H/Y100E VK_A64G) (antibody, V domains shown, Kabat positions; also called P1-065332-1) VH: QVQLVESGGGLVKPGGSLRLSCAASGFPFSDYYMSWIRQAPGKGLEWVSWISNSGEPIYYHDSVKGRFTISRDNAKNSLYLQMNSLRAEDTAVYYCARDLPGWEFDLWGRGTLVTVSS VL: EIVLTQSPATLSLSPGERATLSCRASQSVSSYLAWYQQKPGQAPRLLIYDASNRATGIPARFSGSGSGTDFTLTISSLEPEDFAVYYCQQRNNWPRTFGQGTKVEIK ?
9.39
